systemTested: Cyclin-dependent kinase 5/CDK5 activator 1 (Homo sapiens) (UniProt Q00535+Q15078)
Sequence (Q00535 whole entry): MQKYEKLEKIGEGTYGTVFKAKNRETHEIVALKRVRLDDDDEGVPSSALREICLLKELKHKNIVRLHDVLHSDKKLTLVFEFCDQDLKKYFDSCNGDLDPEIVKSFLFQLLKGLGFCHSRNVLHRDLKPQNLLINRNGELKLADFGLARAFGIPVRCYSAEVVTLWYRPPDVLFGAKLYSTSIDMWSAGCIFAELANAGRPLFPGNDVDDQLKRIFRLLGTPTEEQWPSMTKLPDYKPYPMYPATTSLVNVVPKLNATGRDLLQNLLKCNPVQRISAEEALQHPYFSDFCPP
Sequence (Q15078 99-307 partner limits assumed): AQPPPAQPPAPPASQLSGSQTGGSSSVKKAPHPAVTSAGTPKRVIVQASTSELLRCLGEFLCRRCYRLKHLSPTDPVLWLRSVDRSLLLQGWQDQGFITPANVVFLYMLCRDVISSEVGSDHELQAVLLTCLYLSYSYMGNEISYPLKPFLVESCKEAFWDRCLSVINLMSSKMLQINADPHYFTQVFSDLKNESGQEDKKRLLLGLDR
testMethodNotes: Inhibition of human recombinant CDK5/p25 expressed in bacteria assessed as enzyme residual activity using histone H1 as substrate at 1 uM incubated for 30 mins in presence of ATP by ADP-Glo kinase assay
reportedMetric: Activity (%)

NCc1c[nH]c2cc3cnccc3cc12 :: 100
N#Cc1c[nH]c2cc3cnccc3cc12 :: 69
ON=Cc1c[nH]c2cc3cnccc3cc12 :: 51
Nc1cc2cc3ccncc3cc2[nH]1 :: 89
Cn1ccc2cc3ccncc3cc21 :: 53
Brc1c[nH]c2cc3cnccc3cc12 :: 100
c1cc2cc3c(-c4cncnc4)c[nH]c3cc2cn1 :: 100
CNCc1c[nH]c2cc3cnccc3cc12 :: 93
c1cc2cc3cc[nH]c3cc2cn1 :: 100
c1ccc(-c2c[nH]c3cc4cnccc4cc23)cc1 :: 97
Clc1c[nH]c2cc3cnccc3cc12 :: 100

---

systemTested: Dual specificity tyrosine-phosphorylation-regulated kinase 1A (Rattus norvegicus) (UniProt Q63470)
testMethodNotes: Inhibition of recombinant rat DYRK1A kinase domain (1 to 499 residues) expressed in bacteria assessed as enzyme residual activity using KKISGRLSPIMTEQ as substrate at 1 uM incubated for 30 mins in presence of ATP by ADP-Glo kinase assay
Range-based classes on measured Activity: interval 1: < 40%; interval 2: ≥ 40% and < 70%; interval 3: ≥ 70%

NCc1c[nH]c2cc3cnccc3cc12 :: interval 3
N#Cc1c[nH]c2cc3cnccc3cc12 :: interval 1
c1cc2cc3c(-c4cncnc4)c[nH]c3cc2cn1 :: interval 2
Nc1nccc(-c2c[nH]c3cc4cnccc4cc23)n1 :: interval 1
O=Cc1c[nH]c2cc3cnccc3cc12 :: interval 1
Cn1cc(I)c2cc3ccncc3cc21 :: interval 2
Brc1c[nH]c2cc3cnccc3cc12 :: interval 1
CC(=O)c1c[nH]c2cc3cnccc3cc12 :: interval 1
Clc1c[nH]c2cc3cnccc3cc12 :: interval 2
c1ccc(-c2c[nH]c3cc4cnccc4cc23)cc1 :: interval 2
CN(C)Cc1c[nH]c2cc3cnccc3cc12 :: interval 3
CCNCc1c[nH]c2cc3cnccc3cc12 :: interval 3
Cn1ccc2cc3ccncc3cc21 :: interval 2
c1cc2cc3cc[nH]c3cc2cn1 :: interval 3
Ic1c[nH]c2cc3cnccc3cc12 :: interval 2
ON=Cc1c[nH]c2cc3cnccc3cc12 :: interval 1
OCc1c[nH]c2cc3cnccc3cc12 :: interval 3
CCN(CC)Cc1c[nH]c2cc3cnccc3cc12 :: interval 3
c1cc(-c2c[nH]c3cc4cnccc4cc23)ccn1 :: interval 2
Nc1cc2cc3ccncc3cc2[nH]1 :: interval 3
CCn1ncc2cc3cnccc3c(N)c21 :: interval 1

---

systemTested: Serine/threonine-protein kinase pim-1 (Homo sapiens)
Sequence (P11309 whole entry, looked up): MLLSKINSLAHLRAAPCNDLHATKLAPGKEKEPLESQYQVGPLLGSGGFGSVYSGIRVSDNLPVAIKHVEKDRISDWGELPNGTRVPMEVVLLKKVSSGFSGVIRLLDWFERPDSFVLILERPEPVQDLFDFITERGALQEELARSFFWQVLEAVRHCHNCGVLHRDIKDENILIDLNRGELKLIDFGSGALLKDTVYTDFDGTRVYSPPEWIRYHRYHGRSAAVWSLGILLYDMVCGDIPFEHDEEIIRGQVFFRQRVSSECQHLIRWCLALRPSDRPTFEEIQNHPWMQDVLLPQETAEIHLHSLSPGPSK
testMethodNotes: Inhibition of human recombinant PIM-1 expressed in bacteria assessed as enzyme residual activity using histone H1 as substrate at 1 uM incubated for 30 mins in presence of ATP by ADP-Glo kinase assay
We use 70% as the dividing line for Activity: on or above the line is label 1, below is label 0.

O=Cc1c[nH]c2cc3cnccc3cc12 :: label 0
NCc1c[nH]c2cc3cnccc3cc12 :: label 1
CN(C)Cc1c[nH]c2cc3cnccc3cc12 :: label 0
Nc1nccc(-c2c[nH]c3cc4cnccc4cc23)n1 :: label 0
OCc1c[nH]c2cc3cnccc3cc12 :: label 1
CCNCc1c[nH]c2cc3cnccc3cc12 :: label 1
Cn1cc(I)c2cc3ccncc3cc21 :: label 0
Cn1ccc2cc3ccncc3cc21 :: label 0

---

systemTested: CDK9/cyclin T1 (Homo sapiens) (UniProt O60563+P50750)
testMethodNotes: Inhibition of human recombinant CDK9/cyclin T expressed in baculovirus-infected Sf9 cells assessed as enzyme residual activity using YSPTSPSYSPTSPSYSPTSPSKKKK as substrate at 1 uM incubated for 30 mins in presence of ATP by ADP-Glo kinase assay
reportedMetric: Activity

O=Cc1c[nH]c2cc3cnccc3cc12 :: 7%
CNCc1c[nH]c2cc3cnccc3cc12 :: 58%
CCN(CC)Cc1c[nH]c2cc3cnccc3cc12 :: 86%
NCc1c[nH]c2cc3cnccc3cc12 :: 93%
Brc1c[nH]c2cc3cnccc3cc12 :: 39%
c1cc2cc3cc[nH]c3cc2cn1 :: 76%
Ic1c[nH]c2cc3cnccc3cc12 :: 62%
c1cc2cc3c(-c4cncnc4)c[nH]c3cc2cn1 :: 79%
Nc1nccc(-c2c[nH]c3cc4cnccc4cc23)n1 :: 56%
Nc1cc2cc3ccncc3cc2[nH]1 :: 74%
CCn1ncc2cc3cnccc3c(N)c21 :: 80%
Clc1c[nH]c2cc3cnccc3cc12 :: 62%
Cn1ccc2cc3ccncc3cc21 :: 89%
CN(C)Cc1c[nH]c2cc3cnccc3cc12 :: 57%
CC(=O)c1c[nH]c2cc3cnccc3cc12 :: 34%
ON=Cc1c[nH]c2cc3cnccc3cc12 :: 13%
N#Cc1c[nH]c2cc3cnccc3cc12 :: 34%
OCc1c[nH]c2cc3cnccc3cc12 :: 81%
c1cc(-c2c[nH]c3cc4cnccc4cc23)ccn1 :: 78%
CCNCc1c[nH]c2cc3cnccc3cc12 :: 74%
Cn1cc(I)c2cc3ccncc3cc21 :: 57%
c1ccc(-c2c[nH]c3cc4cnccc4cc23)cc1 :: 83%

---

systemTested: Dual specificity protein kinase CLK1 (Mus musculus)
testMethodNotes: Inhibition of recombinant mouse CLK1 expressed in bacteria assessed as enzyme residual activity using GRSRSRSRSRSR as substrate at 10 uM incubated for 30 mins in presence of ATP by ADP-Glo kinase assay
We use 30% as the dividing line for Activity: on or above the line is 1 (yes), below is 0 (no).

COc1ncc2cc3cnccc3c([N+](=O)[O-])c2n1 :: 0 (no)
OCc1c[nH]c2cc3cnccc3cc12 :: 1 (yes)
CCN(CC)Cc1c[nH]c2cc3cnccc3cc12 :: 1 (yes)
Ic1c[nH]c2cc3cnccc3cc12 :: 0 (no)
Nc1nccc(-c2c[nH]c3cc4cnccc4cc23)n1 :: 0 (no)
CNCc1c[nH]c2cc3cnccc3cc12 :: 1 (yes)
N#Cc1c[nH]c2cc3cnccc3cc12 :: 0 (no)
Brc1c[nH]c2cc3cnccc3cc12 :: 1 (yes)

---

Below is a list of entries, each paired with its recorded Activity value.
systemTested: Casein kinase I isoform epsilon (Homo sapiens) (UniProt P49674)
Sequence (P49674 whole entry, looked up, canonical isoform): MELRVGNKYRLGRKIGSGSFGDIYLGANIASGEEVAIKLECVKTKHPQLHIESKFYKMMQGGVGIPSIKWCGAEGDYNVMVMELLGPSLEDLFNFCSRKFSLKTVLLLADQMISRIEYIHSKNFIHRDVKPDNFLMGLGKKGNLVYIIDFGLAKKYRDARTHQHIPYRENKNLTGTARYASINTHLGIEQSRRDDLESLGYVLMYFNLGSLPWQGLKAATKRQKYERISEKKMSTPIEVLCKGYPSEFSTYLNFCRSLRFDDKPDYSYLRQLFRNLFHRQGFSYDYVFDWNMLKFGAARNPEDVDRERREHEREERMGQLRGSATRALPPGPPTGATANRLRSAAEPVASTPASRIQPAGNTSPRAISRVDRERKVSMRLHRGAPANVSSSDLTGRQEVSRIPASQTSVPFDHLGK
testMethodNotes: Inhibition of human recombinant CK1 epsilon expressed in baculovirus-infected Sf9 cells assessed as enzyme residual activity using RRKHAAIGSpAYSITA as substrate at 10 uM incubated for 30 mins in presence of ATP by ADP-Glo kinase assay
reportedMetric: Activity

OCc1c[nH]c2cc3cnccc3cc12 :: 98%
Cn1cc(I)c2cc3ccncc3cc21 :: 72%
CN(C)Cc1c[nH]c2cc3cnccc3cc12 :: 99%
c1cc(-c2c[nH]c3cc4cnccc4cc23)ccn1 :: 25%
NCc1c[nH]c2cc3cnccc3cc12 :: 96%
c1cc2cc3cc[nH]c3cc2cn1 :: 90%
COc1ncc2cc3cnccc3c([N+](=O)[O-])c2n1 :: 53%
c1ccc(-c2c[nH]c3cc4cnccc4cc23)cc1 :: 88%
N#Cc1c[nH]c2cc3cnccc3cc12 :: 47%

---

systemTested: Cyclin-dependent kinase 5/CDK5 activator 1 (Homo sapiens) (UniProt Q00535+Q15078)
testMethodNotes: Inhibition of human recombinant CDK5/p25 expressed in bacteria assessed as enzyme residual activity using histone H1 as substrate at 1 uM incubated for 30 mins in presence of ATP by ADP-Glo kinase assay
reportedMetric: Activity (%)

Cn1cc(I)c2cc3ccncc3cc21 :: 95
Nc1nccc(-c2c[nH]c3cc4cnccc4cc23)n1 :: 79
c1cc(-c2c[nH]c3cc4cnccc4cc23)ccn1 :: 79
CC(=O)c1c[nH]c2cc3cnccc3cc12 :: 31
O=Cc1c[nH]c2cc3cnccc3cc12 :: 84
CN(C)Cc1c[nH]c2cc3cnccc3cc12 :: 100
CCn1ncc2cc3cnccc3c(N)c21 :: 65

---

Below is a list of entries, each paired with its recorded Activity value.
systemTested: CDK9/cyclin T1 (Homo sapiens) (UniProt O60563+P50750)
testMethodNotes: Inhibition of human recombinant CDK9/cyclin T expressed in baculovirus-infected Sf9 cells assessed as enzyme residual activity using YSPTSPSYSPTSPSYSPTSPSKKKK as substrate at 10 uM incubated for 30 mins in presence of ATP by ADP-Glo kinase assay
reportedMetric: Activity (%)

N#Cc1c[nH]c2cc3cnccc3cc12 :: 6
Nc1cc2cc3ccncc3cc2[nH]1 :: 27
CC(=O)c1c[nH]c2cc3cnccc3cc12 :: 20
Ic1c[nH]c2cc3cnccc3cc12 :: 35
c1cc2cc3c(-c4cncnc4)c[nH]c3cc2cn1 :: 43
Cn1ccc2cc3ccncc3cc21 :: 60
CNCc1c[nH]c2cc3cnccc3cc12 :: 37
ON=Cc1c[nH]c2cc3cnccc3cc12 :: 2
c1cc(-c2c[nH]c3cc4cnccc4cc23)ccn1 :: 38
NCc1c[nH]c2cc3cnccc3cc12 :: 58
Cn1cc(I)c2cc3ccncc3cc21 :: 26
c1cc2cc3cc[nH]c3cc2cn1 :: 34
CCn1ncc2cc3cnccc3c(N)c21 :: 50
Brc1c[nH]c2cc3cnccc3cc12 :: 27
